- Test target: T1, human ceruloplasmin (human, UniProt P00450 20-1065)
- T1 construct: also called CP; purified CP
- T1 sequence: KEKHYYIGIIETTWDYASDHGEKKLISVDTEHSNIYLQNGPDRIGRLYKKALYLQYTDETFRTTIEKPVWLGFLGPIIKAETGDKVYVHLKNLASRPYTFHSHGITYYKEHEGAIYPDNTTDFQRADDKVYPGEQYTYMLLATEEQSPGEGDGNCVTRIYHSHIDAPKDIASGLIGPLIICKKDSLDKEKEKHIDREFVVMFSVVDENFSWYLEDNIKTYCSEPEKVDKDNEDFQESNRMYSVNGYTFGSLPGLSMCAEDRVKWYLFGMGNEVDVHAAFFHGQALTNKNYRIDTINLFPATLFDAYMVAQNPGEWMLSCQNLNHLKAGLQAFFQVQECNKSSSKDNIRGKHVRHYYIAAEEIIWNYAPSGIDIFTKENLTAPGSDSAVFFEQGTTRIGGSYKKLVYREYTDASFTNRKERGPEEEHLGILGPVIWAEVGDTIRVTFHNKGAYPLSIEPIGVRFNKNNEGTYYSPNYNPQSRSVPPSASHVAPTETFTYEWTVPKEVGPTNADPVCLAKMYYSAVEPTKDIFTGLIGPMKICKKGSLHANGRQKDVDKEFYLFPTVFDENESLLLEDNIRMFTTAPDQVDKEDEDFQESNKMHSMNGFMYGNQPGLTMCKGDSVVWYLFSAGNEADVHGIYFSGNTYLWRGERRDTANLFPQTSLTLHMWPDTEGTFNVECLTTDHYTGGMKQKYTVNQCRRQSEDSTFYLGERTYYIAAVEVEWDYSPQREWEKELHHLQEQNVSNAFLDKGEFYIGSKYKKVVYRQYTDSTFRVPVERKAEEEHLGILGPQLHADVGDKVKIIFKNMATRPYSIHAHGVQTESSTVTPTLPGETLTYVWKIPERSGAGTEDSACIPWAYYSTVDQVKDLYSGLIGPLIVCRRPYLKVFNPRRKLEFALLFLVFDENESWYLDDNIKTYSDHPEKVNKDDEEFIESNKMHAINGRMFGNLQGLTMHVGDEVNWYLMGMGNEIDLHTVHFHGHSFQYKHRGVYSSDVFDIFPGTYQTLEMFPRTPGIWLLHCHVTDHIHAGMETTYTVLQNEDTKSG
- Test method notes: competition ELISA on coated CP, biotinylated probe; competitor: mAb B
For each record, write down the corresponding probe binding, % of diluent control.
Note: state the figure and append the unit.

Each binder below has a recorded value; state its probe binding, % of diluent control.
1. anti-CP mAb C (antibody, V domains shown, Recombinant full-length rabbit IgG from HEK-293; also called mAb2) VH: QSVEESGGRLVTPGTPLTLTCTASGFSLSRYYMSWVRQAPGKGLEWIGMIYPSSGSTWYASWVKGRFTISATATSVDLKITSPTTEDTATYFCVRDRYPGYNGDSFNLWGQGTLVTVSS VL: AQVLTQTASPVSAAVGSTVTINCQASQSVYNNNYLAWFQQKPGQPPKRLIYQASKLAIGVPSRFSGSGSGTQFTLTISDVQCDDAATYYCLGSYGCNSVDCNVFGGGTEVVVKG
2. anti-CP mAb H (antibody, V domains shown, Recombinant full-length rabbit IgG from HEK-293; tested as conditioned medium, Protein A-purified and biotinylated) VH: QSVEESGGRLVTPGTPLTLTCTVSGFSLSTYAMGWVRQAPGKGLEYIGIIYGGSGTFYASWAKGRFTISKTSTTVDLKITSPTTEDTATYFCARDGDDSYFDYFNLWGQGTLVTVSS VL: AAVLTQTPASVSAAVGGTVSISCQSNENIGSNLAWYQQKPGQPPKLLIYGASTLTSGVPSRFKGSGSGTAFTLTISGVQCDDAATYYCLGGYLSTSDTTFGGGTAVVVKG
3. anti-CP mAb G (antibody, V domains shown, Recombinant full-length rabbit IgG from HEK-293; also called mAb3) VH: QSLEESGGRLVTPGTLLTLTCTVSGFSLSSNAMSWVRQAPGEGLEWIGTISSRGSTYYANWAKGRFTISKTSTTVDLKITSPTTEDTATYFCARSSLAGYEPYYFKLWGQGTLVTVSS VL: DVVMTQTASPVSAAVGGTVTIKCQASESISSYLAWYQQKPGQPPKLLIYGASDLASGVPSRFKGSGSGTEFTLTISDLECADAATYYCQSYYGLSRNGYGNVFGGGTEVVVKG
4. anti-CP mAb A (antibody, V domains shown, Recombinant full-length rabbit IgG from HEK-293; tested as conditioned medium, Protein A-purified and biotinylated) VH: QSLEESGGDLVKPGASLTLTCKASGFDLSRFYYMCWVRQAPGKGLEWIACIYAGRTGNTYYASWAKGRFTISKTSSTTVTLQMTSLTAADTATYFCARASGDFLAYTYAMDLWGPGTLVTVSS VL: AAVLTQTPASVSAAVGGTVTISCQASQSVDNNNYLAWYQQKPGQPPKLLIYEASKLASGVPSRFSGSGSGTQFTLTISDVQCDDATTYYCAGGYSSSADANAFGGGTEVVVKG

Result block:
["95%", "110%", "93%", "183%"]

Query block: Query: probe binding, % of diluent control; subject: anti-CP mAb D (antibody, V domains shown, Recombinant full-length rabbit IgG from HEK-293; tested as conditioned medium, Protein A-purified and biotinylated) VH: QEQLVESGGGLVQPEGSLTLTCKASGFDFSSYWMCWVRQAPGKRPEWIACIYGGDGTSYFAGWAKGRFTISKTSSTTVTLQMTSLTAADTATYFCARADYYVYVDGGYGHAYDLWGPGTLVTVSS VL: DIVMTQTPASVEAAVGGSVTIKCQASDDIYSYLAWYQQKPGQPPKLLIFDASSLPSGVPSRFKGSGSGTQFTLTISGVQCADAATYYCQNYYGSSSSVHAFGGGTEVVVKG
Result block: 98%
